Measured IC50 by item
Biological target: various mutants of kinase EGFR (BaF3 cell lines stably transfected with kinase) (Homo sapiens, UniProt P00533, L858R)
Construct: expressed in transfected cells; host or cells: BaF3
Sequence (P00533 25-1210 L858R): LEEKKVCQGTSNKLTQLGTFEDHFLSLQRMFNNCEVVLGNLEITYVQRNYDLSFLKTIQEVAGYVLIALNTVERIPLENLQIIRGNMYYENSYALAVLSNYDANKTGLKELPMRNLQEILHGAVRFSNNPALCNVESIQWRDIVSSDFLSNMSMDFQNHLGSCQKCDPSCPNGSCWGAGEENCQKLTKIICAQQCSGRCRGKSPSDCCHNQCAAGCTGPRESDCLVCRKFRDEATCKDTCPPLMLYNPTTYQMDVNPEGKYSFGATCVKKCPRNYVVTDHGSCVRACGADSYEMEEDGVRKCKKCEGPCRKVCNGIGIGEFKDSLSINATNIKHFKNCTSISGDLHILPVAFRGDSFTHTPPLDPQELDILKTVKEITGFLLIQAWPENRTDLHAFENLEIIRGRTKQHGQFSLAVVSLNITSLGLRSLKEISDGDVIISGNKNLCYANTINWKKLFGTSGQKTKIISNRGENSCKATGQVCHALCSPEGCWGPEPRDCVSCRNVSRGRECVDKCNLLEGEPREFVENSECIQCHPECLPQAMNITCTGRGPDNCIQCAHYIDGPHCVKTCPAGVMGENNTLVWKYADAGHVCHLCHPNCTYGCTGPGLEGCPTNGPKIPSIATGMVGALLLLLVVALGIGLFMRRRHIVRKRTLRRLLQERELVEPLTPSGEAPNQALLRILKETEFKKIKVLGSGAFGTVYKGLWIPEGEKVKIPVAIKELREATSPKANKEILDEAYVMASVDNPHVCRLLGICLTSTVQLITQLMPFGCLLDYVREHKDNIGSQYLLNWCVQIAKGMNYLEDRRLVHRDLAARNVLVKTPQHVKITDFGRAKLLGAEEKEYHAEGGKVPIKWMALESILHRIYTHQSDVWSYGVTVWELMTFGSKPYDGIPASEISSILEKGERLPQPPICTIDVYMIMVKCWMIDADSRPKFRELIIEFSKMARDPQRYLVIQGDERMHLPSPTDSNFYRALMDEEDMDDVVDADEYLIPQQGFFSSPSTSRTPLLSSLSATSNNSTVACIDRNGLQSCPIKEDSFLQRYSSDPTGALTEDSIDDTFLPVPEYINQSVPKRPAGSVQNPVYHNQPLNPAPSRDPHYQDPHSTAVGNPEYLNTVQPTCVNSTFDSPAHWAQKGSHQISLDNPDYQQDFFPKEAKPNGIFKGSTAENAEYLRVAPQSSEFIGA
Experiment: Growth inhibitory activity of compounds on BaF3 cell lines stably transfected with kinase (MTS, 48 h)
Format: cell-based
Details: BaF3 cells stably transfected with EGFR L858R, read-out: IC50, growth inhibition, L858R

>>> print(df.to_string())
                            chemical_string  measurement_name  value_measured
0  CCc1cc(Nc2ncc(Br)c(Nc3ccc4nccnc4c3N(C)S(=O)(=O)C(C)C)n2)c(OC)cc1N1CCC(N2CCN(C)CC2)CC1              IC50  0.05 to 0.5 µM
1  COc1cc(N2CCN(C)CC2)c(C)cc1Nc1ncc(Br)c(Nc2ccc3nccnc3c2N(C)S(C)(=O)=O)n1              IC50       ≤ 0.05 µM

stdin: So what's the measured IC50 for this one? COc1cc(N2CCC(N3CCN(C)CC3)CC2)c(C(C)C)cc1Nc1ncc(C2CC2)c(Nc2ccc3nccnc3c2N(C)S(C)(=O)=O)n1
stdout: 0.05 to 0.5 µM

stdin: So what's the measured IC50 for this one? CN(c1c(Nc2nc(NC3CC3)ncc2Br)ccc2nccnc12)S(C)(=O)=O
stdout: 0.5 to 2.5 µM

stdin: So what's the measured IC50 for this one? CCc1cc(Nc2ncc(Cl)c(Nc3ccc4nccnc4c3N(CC)S(C)(=O)=O)n2)c(OC)cc1N1CCC(N(C)C)CC1
stdout: ≤ 0.05 µM

stdin: So what's the measured IC50 for this one? COc1cc(N2CCC(N3CCN(C)CC3)CC2)c(CC2CC2)cc1Nc1ncc(Br)c(Nc2ccc3nccnc3c2N(C)S(=O)(=O)C2CC2)n1
stdout: 0.05 to 0.5 µM

----------
Measured pIC50 by item
Target: various mutants of kinase EGFR (BaF3 cell lines stably transfected with kinase) (Homo sapiens, UniProt P00533, T790M, form not given)
Construct: other: BaF3 cells stably transfected with EGFR Δ19Del/T790M; MTS, 48 h; other: BaF3 cell line stably transfected with EGFR Δ19Del/T790M; MTS, 48
Sequence (P00533 with tags, fused parts or gaps DEL746-750/T790M, form open): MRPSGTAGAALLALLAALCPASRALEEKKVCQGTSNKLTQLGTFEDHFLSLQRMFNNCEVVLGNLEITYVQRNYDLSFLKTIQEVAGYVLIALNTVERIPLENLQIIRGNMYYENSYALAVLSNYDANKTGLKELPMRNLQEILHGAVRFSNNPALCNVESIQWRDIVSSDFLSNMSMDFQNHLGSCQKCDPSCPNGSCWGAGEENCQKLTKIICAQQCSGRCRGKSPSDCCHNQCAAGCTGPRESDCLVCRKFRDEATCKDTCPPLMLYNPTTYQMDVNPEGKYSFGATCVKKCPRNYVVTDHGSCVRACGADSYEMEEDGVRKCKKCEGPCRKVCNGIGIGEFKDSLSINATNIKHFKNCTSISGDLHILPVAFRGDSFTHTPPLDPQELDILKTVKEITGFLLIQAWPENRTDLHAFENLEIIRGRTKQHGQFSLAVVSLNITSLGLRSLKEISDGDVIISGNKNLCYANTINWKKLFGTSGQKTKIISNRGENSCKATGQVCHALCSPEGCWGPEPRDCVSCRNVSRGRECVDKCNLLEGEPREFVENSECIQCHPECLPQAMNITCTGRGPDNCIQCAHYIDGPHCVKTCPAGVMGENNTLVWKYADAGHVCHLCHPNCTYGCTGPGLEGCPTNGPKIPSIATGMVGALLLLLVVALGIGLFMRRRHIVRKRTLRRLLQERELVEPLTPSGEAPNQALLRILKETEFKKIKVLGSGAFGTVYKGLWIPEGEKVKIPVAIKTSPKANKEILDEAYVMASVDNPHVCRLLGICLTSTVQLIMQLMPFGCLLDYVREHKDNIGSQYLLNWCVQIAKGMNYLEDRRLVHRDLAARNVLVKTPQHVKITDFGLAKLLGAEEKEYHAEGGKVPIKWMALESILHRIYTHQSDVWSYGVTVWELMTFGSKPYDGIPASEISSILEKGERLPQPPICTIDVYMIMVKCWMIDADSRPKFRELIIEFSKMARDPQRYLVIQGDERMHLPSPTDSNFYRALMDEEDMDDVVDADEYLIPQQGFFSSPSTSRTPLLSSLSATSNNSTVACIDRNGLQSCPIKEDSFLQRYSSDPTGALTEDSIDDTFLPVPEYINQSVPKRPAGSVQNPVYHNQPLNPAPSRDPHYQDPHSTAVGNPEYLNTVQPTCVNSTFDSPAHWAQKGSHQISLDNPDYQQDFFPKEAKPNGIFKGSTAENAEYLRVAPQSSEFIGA
Assay: Growth inhibitory activity of compounds on BaF3 cell lines stably transfected with kinase (MTS, 48 h)
Type: cell-based
Details: BaF3 cell line stably transfected with EGFR Δ19Del/T790M, read-out: Δ19Del/ T790M growth inhibitory activity IC50
Protocol: The activity of compounds against various mutants of kinase EGFR was evaluated by their effect of inhibiting growth of BaF3 cell lines stably transfected with kinase. The specific test method was given as follows: […] 3) Compound test: cells were incubated into a 96-well culture plate, the volume of cytosol was 90 µL, and then 10 µL of the compound at each gradient concentration was added. […] OD values at 490 nm were measured by a microplate reader (VARIOSKAN FLASH, Thermo). […]
pIC50: −log10 of the molar value.

Solved entries (count: 3):
>>> df
                                   compound  measurement_name  value_measured
0  COc1nc(N2CCC(N3CCN(C)CC3)CC2)c(C)cc1Nc1nc(Nc2ccc3nccnc3c2N(C)S(C)(=O)=O)c2[nH]ccc2n1 [II-1-28]             pIC50    5.60 to 6.30
1  COc1ccc(N2CCC(N3CCCC3)CC2)cc1Nc1ncc(Br)c(Nc2ccc3nccnc3c2N(C)S(C)(=O)=O)n1 [Compound I-382]             pIC50    6.30 to 7.30
2  C=Cc1cc(Nc2ncc(Br)c(Nc3ccc4nccnc4c3N(C3CC3)S(C)(=O)=O)n2)c(OC(F)(F)F)cc1N1CCC(N2CCN(C)CC2)CC1 [Compound I-307]             pIC50    6.30 to 7.30

stdin: So what's the measured pIC50 for this one? CCc1cc(Nc2nc(Nc3ccc4nccnc4c3N(C)S(C)(=O)=O)c3occc3n2)c(OC(F)(F)F)cc1N1CCC(N2CCN(C)CC2)CC1 [II-1-41]
stdout: 5.60 to 6.30

stdin: So what's the measured pIC50 for this one? CCc1cc(Nc2ncc(Br)c(Nc3ccc4nccnc4c3N(C)S(C)(=O)=O)n2)c(OC)cc1N1CCN(C2CN(C)C2)CC1 [Compound I-398]
stdout: ≥ 7.30

stdin: So what's the measured pIC50 for this one? CCc1cc(Nc2ncc(Br)c(Nc3ccc4nccnc4c3NS(C)(=O)=O)n2)c(OC)cc1C(=O)N1CCC(N2CCN(C)CC2)CC1 [Compound I-361]
stdout: 5.60 to 6.30

----------
Molecular target: various mutants of kinase EGFR (BaF3 cell lines stably transfected with kinase) (Homo sapiens, UniProt P00533, T790M/C797S, form not given)
Construct: other: BaF3 cells stably transfected with EGFR Δ19Del/T790M/C797S; MTS, 48; other: BaF3 cell line stably transfected with EGFR Δ19Del/T790M/C7
Sequence (P00533 with tags, fused parts or gaps DEL746-750/T790M/C797S, form open): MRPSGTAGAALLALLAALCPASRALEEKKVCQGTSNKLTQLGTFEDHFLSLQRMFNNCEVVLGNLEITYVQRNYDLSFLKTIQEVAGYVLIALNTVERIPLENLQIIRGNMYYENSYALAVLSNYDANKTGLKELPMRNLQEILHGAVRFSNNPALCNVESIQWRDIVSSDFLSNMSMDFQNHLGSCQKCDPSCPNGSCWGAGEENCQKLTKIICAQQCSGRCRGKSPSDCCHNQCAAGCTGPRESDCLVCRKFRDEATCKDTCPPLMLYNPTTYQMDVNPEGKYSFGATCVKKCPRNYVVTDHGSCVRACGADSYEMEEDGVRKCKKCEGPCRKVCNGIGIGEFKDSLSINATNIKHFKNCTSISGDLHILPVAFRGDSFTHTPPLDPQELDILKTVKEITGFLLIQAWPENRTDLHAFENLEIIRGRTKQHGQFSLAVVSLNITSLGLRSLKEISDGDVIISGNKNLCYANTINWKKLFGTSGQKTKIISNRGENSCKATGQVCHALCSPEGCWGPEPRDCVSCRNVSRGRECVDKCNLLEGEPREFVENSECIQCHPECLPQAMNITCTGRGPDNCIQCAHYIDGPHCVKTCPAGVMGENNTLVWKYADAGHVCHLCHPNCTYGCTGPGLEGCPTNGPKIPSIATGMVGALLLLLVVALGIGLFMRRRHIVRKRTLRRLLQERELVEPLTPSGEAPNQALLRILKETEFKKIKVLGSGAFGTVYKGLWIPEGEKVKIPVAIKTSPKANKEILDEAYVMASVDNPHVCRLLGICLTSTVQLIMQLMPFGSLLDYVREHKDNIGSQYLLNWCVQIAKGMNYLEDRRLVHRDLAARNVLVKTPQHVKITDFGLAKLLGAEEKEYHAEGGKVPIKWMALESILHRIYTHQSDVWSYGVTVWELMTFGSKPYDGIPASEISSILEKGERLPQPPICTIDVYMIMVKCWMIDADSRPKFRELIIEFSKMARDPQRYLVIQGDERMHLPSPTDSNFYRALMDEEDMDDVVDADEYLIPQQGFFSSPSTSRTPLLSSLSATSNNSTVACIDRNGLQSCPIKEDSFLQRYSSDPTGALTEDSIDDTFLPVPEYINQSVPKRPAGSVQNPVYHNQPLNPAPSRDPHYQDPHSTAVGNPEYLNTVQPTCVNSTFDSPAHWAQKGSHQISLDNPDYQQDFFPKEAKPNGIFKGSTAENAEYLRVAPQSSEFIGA
Assay: Growth inhibitory activity of compounds on BaF3 cell lines stably transfected with kinase (MTS, 48 h)
Format: cell-based
Conditions: BaF3 cells stably transfected with EGFR Δ19Del/T790M/C797S, read-out: IC50, growth inhibition, Δ19Del/T790M/C797S
Measurement Name: IC50

                                   compound  measurement_name  value_measured
0  CCc1cc(Nc2ncc(Br)c(Nc3ccc4nccnc4c3N(C)S(=O)(=O)C(F)(F)F)n2)c(OC(F)(F)F)cc1N1CCC(N2CCN(C)CC2)CC1 [Compound I-126]              IC50    50 to 500 nM
1  COc1cc(N2CCC(N(C)C)C2)c(C)cc1Nc1ncc(C2CC2)c(Nc2ccc3nccnc3c2N(C)S(C)(=O)=O)n1 (stereo not shown) [Compound I-274]              IC50         ≤ 50 nM
2  Cc1ccc(Nc2ncc(Br)c(Nc3ccc4nccnc4c3N(C)S(C)(=O)=O)n2)cn1 [Compound I-63]              IC50    50 to 500 nM
3  CN1CCN(Cc2cccc(Nc3ncc(Br)c(Nc4ccc5nccnc5c4N(C)S(C)(=O)=O)n3)c2)CC1 [Compound I-84]              IC50    50 to 500 nM
4  COc1cc(N2CCC(N3CCN(C)CC3)CC2)ccc1Nc1ncc(F)c(Nc2ccc3nccnc3c2N(C)S(C)(=O)=O)n1 [Compound I-24]              IC50    50 to 500 nM

stdin: So what's the measured IC50 for this one? CCc1cc(Nc2ncc(Br)c(Nc3ccc4nccnc4c3N(CC)S(C)(=O)=O)n2)c(OC)cc1N1CCN(C)CC1 [Compound I-301]
stdout: ≤ 50 nM

stdin: So what's the measured IC50 for this one? CN1CCN(C2CCN(c3ccc(Nc4ncc(Br)c(Nc5ccc6nccnc6c5N(C)S(C)(=O)=O)n4)c(OC(F)(F)F)c3)CC2)CC1 [Compound I-7]
stdout: ≤ 50 nM

stdin: So what's the measured IC50 for this one? COc1cc(N2CCN(C)CC2)c(C)cc1Nc1ncc(F)c(Nc2ccc3nccnc3c2N(C)S(C)(=O)=O)n1 [Compound I-185]
stdout: ≤ 50 nM

stdin: So what's the measured IC50 for this one? CCc1cc(Nc2ncc(Cl)c(Nc3ccc4nccnc4c3N(C)S(=O)(=O)C(C)C)n2)c(OC)nc1N1CCC(N2CCN(C)CC2)CC1 [Compound I-253]
stdout: ≤ 50 nM

stdin: So what's the measured IC50 for this one? CCc1cc(Nc2ncc(Br)c(Nc3ccc4nccnc4c3N(CC)S(C)(=O)=O)n2)c(OC)cc1N1CCC(N2CCN(C)CC2)CC1 [Compound I-95]
stdout: ≤ 50 nM

----------
Measured pIC50 by item
Biological target: various mutants of kinase EGFR (BaF3 cell lines stably transfected with kinase) (Homo sapiens, UniProt P00533, T790M, form not given)
Construct: other: BaF3 cells stably transfected with EGFR Δ19Del/T790M; MTS, 48 h; other: BaF3 cell line stably transfected with EGFR Δ19Del/T790M; MTS, 48
Test: Growth inhibitory activity of compounds on BaF3 cell lines stably transfected with kinase (MTS, 48 h)
Format: cell-based
Conditions: BaF3 cells stably transfected with EGFR Δ19Del/T790M, read-out: IC50, growth inhibition, Δ19Del/T790M
pIC50: −log10 of the molar value.

Solved entries (count: 5):
>>> df
                                   compound  value_measured
0  CCc1cc(Nc2ncc(Cl)c(Nc3ccc4nccnc4c3N(C3CC3)S(C)(=O)=O)n2)c(OC)cc1N1CCC(N2CCN(C)CC2)CC1          ≥ 7.30
1  COc1cc2c(cc1Nc1ncc(Br)c(Nc3ccc4nccnc4c3N(C)S(C)(=O)=O)n1)CN(C)CC2    6.30 to 7.30
2  COc1cc(N2CCC(N3CCN(C)CC3)CC2)c(C2CC2)cc1Nc1ncc(Br)c(Nc2ccc3nccnc3c2N(C)S(C)(=O)=O)n1          ≥ 7.30
3  CCc1cc(Nc2ncc(C)c(Nc3ccc4nccnc4c3N(C)S(C)(=O)=O)n2)c(OC)cc1N1CCC(N(C)C)C1 (stereo not drawn)          ≥ 7.30
4  COc1cc(N2CCC(N3CCN(C)CC3)CC2)c(CC2CC2)cc1Nc1ncc(Cl)c(Nc2ccc3nccnc3c2N(C)S(C)(=O)=O)n1          ≥ 7.30

stdin: So what's the measured pIC50 for this one? CCc1cc(Nc2ncc(Br)c(Nc3ccc4nccnc4c3N(C)S(C)(=O)=O)n2)c(OC)cc1N1CCC(N(C)C)C1 (stereo not drawn)
stdout: ≥ 7.30

The reported numbers originate from patent US20230310428A1.
